Where do these numbers come from? They come from patent US20020072606A1.

quantity: melting point

CCCC[C@@]12CC3C[C@H](O)/C(=C/c4ccccc4)CC3CN1CCc1c2[nH]c2ccccc12 (stereo partly drawn); 222 to 225 °C

Query compound follows.
Form: compound = COc1cccc(/C=C2\CC3CN4CCc5c([nH]c6ccccc56)[C@]4(C)CC3C[C@@H]2O)c1 (stereo partly drawn) ; melting point = 140 to 142 °C

###

quantity: melting point

In the examples that follow, each entry is paired with its recorded melting point.
CCC[C@@]12CC3CC(=O)CCC3CN1CCc1c2[nH]c2ccccc12 (stereo partly drawn); 255 °C (dec.)
C=CC[C@@]12CC3C[C@H](O)/C(=C/c4ccccc4)CC3CN1CCc1c2[nH]c2ccccc12 (stereo partly drawn); 211 to 213 °C

Query compound follows.
Form: compound = CCC[C@@]12CC3C[C@H](O)CCC3CN1CCc1c2[nH]c2ccccc12 (stereo partly drawn) ; melting point = 195 °C (dec.)

###

melting point overview

In the examples that follow, each entry is paired with its recorded melting point.
CCC[C@@]12CC3C[C@H](O)/C(=C/c4ccccc4)CC3CN1CCc1c2[nH]c2ccccc12 (stereo partly shown); 224 to 226 °C
C=CC[C@@]12CC3CC(=O)CCC3CN1CCc1c2[nH]c2ccccc12 (stereo partly shown); 220 to 223 °C
C=CC[C@@]12CC3C[C@H](O)CCC3CN1CCc1c2[nH]c2ccccc12 (stereo partly shown); 228 to 230 °C
C[C@@]12CC3CC(=O)/C(=C/c4ccc(Cl)c(Cl)c4)CC3CN1CCc1c2[nH]c2ccccc12 (stereo partly shown); 140 to 145 °C

Query compound follows.
Form: compound = CCCC[C@@]12CC3C[C@H](O)CCC3CN1CCc1c2[nH]c2ccccc12 (stereo partly shown) ; melting point = 235 °C (dec.)

###

Structures can show the parent of a compound that is named as a salt.
quantity: melting point

In the examples that follow, each entry is paired with its recorded melting point.
COc1cccc(/C=C2\CC3CN4CCc5c([nH]c6ccccc56)[C@]4(C)CC3CC2=O)c1 (some centres unmarked); 125 to 130 °C
COc1cc(/C=C2\CC3CN4CCc5c([nH]c6ccccc56)[C@]4(C)CC3C[C@@H]2O)cc(OC)c1 (some centres unmarked); 128 to 132 °C

Form: compound = C[C@@]12CC3CC(N)/C(=C/c4ccccc4)CC3CN1CCc1c2[nH]c2ccccc12 (stereo in doubt) (as salt: trifluoroacetic acid salt) ; melting point = 203 to 210 °C

Form: compound = COc1ccc(/C=C2\CC3CN4CCc5c([nH]c6ccccc56)[C@]4(C)CC3C[C@@H]2O)cc1OC (some centres unmarked) ; melting point = 118 to 121 °C

Form: compound = C[C@@]12CC3C[C@H](O)/C(=C/c4ccc(Cl)c(Cl)c4)CC3CN1CCc1c2[nH]c2ccccc12 (some centres unmarked) ; melting point = 125 to 130 °C

Form: compound = COc1ccc(/C=C2\CC3CN4CCc5c([nH]c6ccccc56)[C@]4(C)CC3CC2=O)cc1OC (some centres unmarked) ; melting point = 120 to 125 °C

Form: compound = C[C@@]12CC3CC(=NO)/C(=C/c4ccccc4)CC3CN1CCc1c2[nH]c2ccccc12 (some centres unmarked) ; melting point = 142 to 145 °C

Form: compound = COc1cc(/C=C2\CC3CN4CCc5c([nH]c6ccccc56)[C@]4(C)CC3CC2=O)cc(OC)c1 (some centres unmarked) ; melting point = 110 to 120 °C
